Quick list: apparent KD of MS2 coat protein per entry.
System: MS2 coat protein
Experiment: apparent KD of MS2 coat protein; designed switch direction (-1 OFF switch, 1 ON switch): -1; higher = weaker reporter binding
Conditions: input ligand: microRNA oligo, concentration not stated

SEQUENCE_ENTRY	apparent KD of MS2 coat protein [nM]
AGGGAACAUGAGGAUCACCCAUGUGAGGAUAUACAAAAGAAAAGAAAAGAAAGAAGAAGUAGAAGGUACAAGAA [Neferka] (Eterna round: R96, puzzle: Exclusion 1)	26.9
AUCAACGUGUUAGGAUAUAAGCCUAAAAGAGACUUAGAAGGGACAUGAGGAUCACCCAUGUCGGGCGCCCAAGCUAUGCGACCU [Eternabot solution 4] (Eterna round: R96, puzzle: Exclusion NG 1)	17.4
AACUAGUCAGGAUAUACGAACAUGUCAAAAAACAUAAAGGGACAUGAGGAUCACCCAUGUAGAAGGGACUAGCA [74%, Web mod - With 4 less G's] (Eterna round: R96, puzzle: Exclusion 2)	150

###

Tested on: K4 kissing-loop RNA reporter;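 also: bound reporter read as fluorescence of individual clusters on recovered sequencing chips by microscopy, with normalized cluster intensities fitted with a binding model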
Assay: apparent KD of K4 kissing-loop reporter; higher = weaker reporter binding
Settings: Eterna round: R107; input ligand: tryptophan 2.4 mM
MEASURED_PARAMETER: apparent KD of K4 kissing-loop reporter (nM)

SEQUENCE_ENTRY	QUANTITY_UNIT	VALUE_MEASURED
UUUUAAAUGUCUGAUACCAGAGAAAAUAUAUGUAGUGAUGUUAUAUACAAAUUUAAUAAGCUCCCUUGGCAGCAGUAUGAAUUUU [AstrosExc-TheB#12]	nM	552
GGUAGCAUGGCGGCCGCCACUUCAAAUGGAGUGAUGUUCCAAGGCAUCGCGAAAGCGAUGCCAGGAAGGACCGGGCCAUGCUACC	nM	143
GGCGGCUGCGCGGAAGCGCAGCCGGCCGAUACCAGCGCGACGGCGCGCCCUUGGCAGCGGCGCCGAGUGAUGUUCGGCCUGCCGU [#2 Same State - Theophylline A Attempt #21 (HarryS)]	nM	117
GAGAAUCUAAUUGAUACCAGAGUAAGAACCAGUGAUGUUGGAAGAUUCCCUAAUAAAUAACUCCCUUGGCAGCGGAAGAGAAUAG [Totally accidental 2]	nM	172
CAGUUCCGUAGUGAUGUUACGAUCUCUGAUACCAGACAACUCUAAGUCCCUUGGCAGCAGUCAUUUUGCUUAAUAUUUACUCAAA [#08 K4 Theophylline A Exclusion]	nM	116
UGUCAUUGGUCGGAUACCAGUUGAUGACGAAUACGUCAACUGGAGUGAUGUUCCUAAAACAACCCUUGGCAGCCGACCGAUGACU [MAT - Same State Theophlline B - Mod of Eli - D1]	nM	761
UAAGAAUAAGUAGCAGUGAUGUUGCUACUACGAGGACCGGUACGGCCGCCACUCGAGCCGUACCAUAACAUCACUGAGGUACGAA [(H1)-(H2)-(Trp1)-(Trp2)-(T)'-(H)'-(T)'']	nM	272
CAGCAUCAGGUUCAAACUGCAUGUACUGAUACCAGUCUUAAGAUCGACCCUUGGCAGCAGCUCCCGAGUGAUGUUCGUAGCGAGC [theeternabot_exclusion_KL_Theo_A_41]	nM	336
AAGUUAUGAUCUGAUACCAGACUUUAUCUUGUUUAUAAGUCAAGUGAUGUUUGACUAUUAGUCCCUUGGCAGCAGUAUUGUUUAA [#18 K4 Theophylline B Same State]	nM	255
GGUAGCAUGGCGGCCGCCACUUAGACUGGAUCGGAAACGAUCCAGUGAAAACGAGUGAUGUUCGUAAGGACCGGGCCAUGCUACC	nM	173
UGAUAGGACAGAAGGAGCGGUAGUGAUGUUGCCAAAAGGAUAAGGUGUCAAAAGACACCCUGCCAGGUAGGUCGCUGUCCUAUCU	nM	99.8

###

Tested on: MS2 coat protein
Experiment: apparent KD of MS2 coat protein; designed switch direction (-1 OFF switch, 1 ON switch): -1; higher = weaker reporter binding
Conditions: input ligand: none
Quick list: apparent KD of MS2 coat protein per entry.
MEASURED_PARAMETER: apparent KD of MS2 coat protein

SEQUENCE_ENTRY	MEASURED_PARAMETER	VALUE_MEASURED
CUGGUGCGCGGAGGAUAUCGGAAAGGAAGUGUACGAGAAGGUCGUUCCACCAAACAUGAGGAUCACCCAUGUAGGAGUGACCUC [PowerStrip EXNG 1.7] (Eterna round: R96, puzzle: Exclusion NG 1)	apparent KD of MS2 coat protein	62.9 nM
GCGGAGAUCGUAUGAUAAUACAUGAGGAUCACCCAUGUGUAUACGAUGCAUGGUACCCGCCGCUUUGCUUGUCUUGC [Eternabot (L1) Solution 30] (Eterna round: R97, puzzle: Sensor, turn-off variant 1)	apparent KD of MS2 coat protein	16.7 nM
AAUACAAGCUAUUGAUCCCACAUGAGGAUCACCCAUGUAGCUGGCCGUGAGACCAGCUUUACGAUAGCUCGUCUUAU [Sensor-V1 #50] (Eterna round: R97, puzzle: Sensor, turn-off variant 1)	apparent KD of MS2 coat protein	263 nM
CCUCCCUGAGGAUAUCCACCCUCAUACAUGAGGAUCACCCAUGUUCAUCCGUGGGUACCCGGAGAAGGCAGCUCUC [Megrez-c] (Eterna round: R97, puzzle: Exclusion 5)	apparent KD of MS2 coat protein	86.7 nM
AAAGAUGUAGGAUAUGUCCAUCCAGACAUGAGGAUCACCCAUGUGAGGGCCGGGUGUUGGGCAGAAGGACACCGGU [Eternabot (Original) Solution 19] (Eterna round: R97, puzzle: Exclusion 5)	apparent KD of MS2 coat protein	31.4 nM
AAUACAAGCUAUUGAUCCCACAUGAGGAUCACCCAUGUAGGAGGCCGUGAGACCUCCUUUACGAUAGCUCGUCUUAU [Sensor-V1 #52] (Eterna round: R97, puzzle: Sensor, turn-off variant 1)	apparent KD of MS2 coat protein	208 nM
UGAAGUAGAGGAUAUACGUGGAAAUAGAUUCAUGUUAAUCUACAUGAGGAUCACCCAUGUAGAAGGCUAUAGAU [JR_Ex2_Sub074] (Eterna round: R97, puzzle: Exclusion 2)	apparent KD of MS2 coat protein	24.3 nM
CGCAUGCAAGGAUAUACUUGCAGUGAUAUUCGAUAAAGUCUACUUGAGGAUCACCCAAGUAGAAGGUGCAUGCG [Exclusion 2 (Mod6.1 JL EX2 4.74 Vienna UCT mod of Mamaed)] (Eterna round: R97, puzzle: Exclusion 2)	apparent KD of MS2 coat protein	25 nM
CAGUACUGAGGAUAUACAUGAGGAUCACCCAUGUGCUCUAGCUAGGAUACUAGCAUUAGUAGAAGGCAGUACUG [Fiskers Ex 3 828 mod 8] (Eterna round: R96, puzzle: Exclusion 3)	apparent KD of MS2 coat protein	19.7 nM
CUCAUGUCAGGAUAUCUACAUUAAAUUGGUAACCAAGCAUGAGAGAAGGGACAUGAGGAUCACCCAUGUAAAAC [Cegeange] (Eterna round: R97, puzzle: Exclusion 4)	apparent KD of MS2 coat protein	27.5 nM
ACAUGUGUUGUAGGAUAUAGGACACAUGAGGAUCACCCAUGUGGAUUCAUGUCUAAGGAAGCGUCCUAGAAGGACGACAACAUG [Ex NG2 #26] (Eterna round: R96, puzzle: Exclusion NG 2)	apparent KD of MS2 coat protein	20 nM
GGCCUGUGAGGAUAUUAGUAGUAGAUGAAAUAAACUAUUACUGAGAAGGCACAUGAGGAUCACCCAUGUUGGCC [Mat - Exclusion 4 - Eli Mod - D36] (Eterna round: R97, puzzle: Exclusion 4)	apparent KD of MS2 coat protein	16.1 nM
UACAUGAGGAUCACCCAUGUUUUGUCGUGUAUGGUAUUUAUCUAGGAUAUCAAUGUAUUUAGUUAUGAGAAGGAGAAUAUUAAU [JMF's solution 46] (Eterna round: R96, puzzle: Exclusion NG 3)	apparent KD of MS2 coat protein	35.3 nM
UCUGGUCGAGGAUAUACAUGAGGAUCACCCAUGUUGAUCAACUGCCGAUAGGCAGAAUGUAGAAGGCGACCAGA [E3/7-A3] (Eterna round: R97, puzzle: Exclusion 3)	apparent KD of MS2 coat protein	865 nM
CCACCUCACGUCAGGAUAUCCAUCUCGAGUGAGGAGGAGAAGGGACAUGAGGAUCACCCAUGUAUAGAAAGAAA [Veaonce] (Eterna round: R97, puzzle: Brourd's mod of Exclusion 4)	apparent KD of MS2 coat protein	22.1 nM
GACUUCUGAGGAUAUACAUAGAUUUACAUGAGGAUCACCCAUGUUCCUCUAUGUAUAAAUGUAGAAGGCAGAAGAG [Mat - Exclusion 5 - JL Mod - D65] (Eterna round: R97, puzzle: Exclusion 5)	apparent KD of MS2 coat protein	19.7 nM
AGAGAAUACUCAGGAUAUCGGAAUAGAAAGAGACGAGAAGGGAGACAUGAGGAUCACCCAUGUGAAGUCUUGAGGCUGCAUGGA [Prohibition 26 - Jieux - Exclusion NG 1] (Eterna round: R96, puzzle: Exclusion NG 1)	apparent KD of MS2 coat protein	165 nM
UGAACAUGUGUCAGGAUAUCUGAUGUAAGUUAAUCGGAGAAGGGACAUGAGGAUCACCCAUGUCGUCGAAAGAU [Eternabot (L2) Solution 40] (Eterna round: R97, puzzle: Brourd's mod of Exclusion 4)	apparent KD of MS2 coat protein	15.5 nM

Origin of the recorded values: the supplement of paper PMC9170038
